Molecular target: UniProt P10499
Sequence (P10499 whole entry): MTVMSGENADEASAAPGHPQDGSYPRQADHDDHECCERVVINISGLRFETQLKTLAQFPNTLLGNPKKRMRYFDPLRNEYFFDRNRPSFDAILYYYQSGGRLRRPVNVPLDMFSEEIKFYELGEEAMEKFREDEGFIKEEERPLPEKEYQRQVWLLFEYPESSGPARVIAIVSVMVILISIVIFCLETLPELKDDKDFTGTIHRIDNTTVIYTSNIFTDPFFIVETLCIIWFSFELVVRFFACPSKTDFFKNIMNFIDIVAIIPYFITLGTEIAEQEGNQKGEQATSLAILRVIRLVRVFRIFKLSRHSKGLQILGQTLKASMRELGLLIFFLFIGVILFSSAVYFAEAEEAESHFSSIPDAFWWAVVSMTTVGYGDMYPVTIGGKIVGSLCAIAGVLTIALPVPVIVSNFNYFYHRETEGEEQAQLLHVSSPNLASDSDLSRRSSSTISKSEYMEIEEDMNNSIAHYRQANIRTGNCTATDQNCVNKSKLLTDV
Assay: Inhibition of recombinant rat Kv(1.1)4 expressed in HEK293 cells at -90 mV holding potential by whole cell patch clamp Qpatch method
Assay type: cell-based
readoutLabel: pIC50
// pIC50 is dimensionless: -log10 of concentration (M)

Query string: Requested read-out: pIC50. Entry: `Cc1ccc(C(c2ccc(C)cc2)(c2ccc(C(=O)NCCN)[nH]2)c2ccc(C(=O)NCCN)[nH]2)cc1.Cl.Cl`
Result string: 4.85

====

Biological target: Potassium voltage-gated channel subfamily A member 1 (Homo sapiens)
Sequence (Q09470 whole entry): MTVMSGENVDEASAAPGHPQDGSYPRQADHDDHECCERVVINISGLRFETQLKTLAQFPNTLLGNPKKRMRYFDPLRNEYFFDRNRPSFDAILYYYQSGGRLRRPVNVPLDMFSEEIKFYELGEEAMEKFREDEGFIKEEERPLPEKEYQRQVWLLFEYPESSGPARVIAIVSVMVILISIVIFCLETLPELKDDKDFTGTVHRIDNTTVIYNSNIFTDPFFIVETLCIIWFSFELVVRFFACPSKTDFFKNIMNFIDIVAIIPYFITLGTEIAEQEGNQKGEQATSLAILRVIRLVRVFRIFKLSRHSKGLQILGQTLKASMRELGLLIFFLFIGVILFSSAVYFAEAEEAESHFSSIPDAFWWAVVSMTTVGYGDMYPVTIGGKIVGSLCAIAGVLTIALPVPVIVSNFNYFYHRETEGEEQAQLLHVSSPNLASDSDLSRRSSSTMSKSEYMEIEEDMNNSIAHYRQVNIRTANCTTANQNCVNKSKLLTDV
Assay: Inhibition of Kv1.1 (unknown origin) expressed in HEK293 cells by whole cell patch clamp Qpatch method
Type: cell-based
readoutLabel: pIC50
Value format note: pIC50 is -log10 of concentration (mol/L); just state the number.

Query string: Quick one: pIC50 of `Cc1ccc(C(c2ccc(C)cc2)(c2ccc(C(=O)NCCN)[nH]2)c2ccc(C(=O)NCCN)[nH]2)cc1.Cl.Cl` ?
Result string: 4.80
